test_system: P2RX3
protocol_description: reporter assay of Huesken 2005
measurement_parameters: siRNA
Oligonucleotides are written 5' to 3', each unit as a sugar letter and its base; * is a phosphorothioate linkage, no mark a phosphodiester; rarer units and linkages stand in square brackets, end groups in braces. Plain capitals give the bases only. d = 2'-deoxy (DNA); r = 2'-OH (RNA)
Outcome: Condition met for normalised inhibition (eCFP-eYFP dual reporter) of at least 80%; Condition not met for anything lower.

Reference set (5 entries):
sense rArGrGrUrGrGrArCrArCrArGrUrGrGrArArArCdTdT / antisense rGrUrUrUrCrCrArCrUrGrUrGrUrCrCrArCrCrUdCdC :: Condition met
sense rUrGrArCrArGrCrCrArGrGrGrArCrArUrGrArAdTdT / antisense rUrUrCrArUrGrUrCrCrCrUrGrGrCrUrGrUrCrAdGdG :: Condition met
sense rArUrCrGrGrGrArUrCrArUrCrArArCrCrGrArGdTdT / antisense rCrUrCrGrGrUrUrGrArUrGrArUrCrCrCrGrArUdGdG :: Condition not met
sense rArCrCrCrGrGrCrUrCrGrArCrArGrCrGrUrUrUdTdT / antisense rArArArCrGrCrUrGrUrCrGrArGrCrCrGrGrGrUdGdA :: Condition met
sense rCrUrCrUrGrUrGrCrUrCrCrGrGrArCrCrUrGrUdTdT / antisense rArCrArGrGrUrCrCrGrGrArGrCrArCrArGrArGdCdT :: Condition not met

Has sense rArCrCrArGrUrArCrArArArGrCrCrArArGrArAdTdT / antisense rUrUrCrUrUrGrGrCrUrUrUrGrUrArCrUrGrGrUdCdG a recorded normalised inhibition (eCFP-eYFP dual reporter) greater than or equal to 80%?
Condition met
